Where do the numbers come from? From the supplement of paper PMC10724198.

protein stability index reference
System: Saccharomyces cerevisiae
Test: protein stability index of tFT-peptide fusion in deletion strain of DAS1 (PSI (0-1 scale)); higher = more stable (slower turnover)

sequence entry	target or system	protein stability index
HRWRVGLWRGAS	Saccharomyces cerevisiae	0.676
LVVYLSCVACIK	Saccharomyces cerevisiae	0.0213
CTSAGYKFRTNN	Saccharomyces cerevisiae	0.678
RVVYLSCVACIN	Saccharomyces cerevisiae	0.0603
ARWRVGLWYGAS	Saccharomyces cerevisiae	0.718
CTSCGRKFRTNN	Saccharomyces cerevisiae	0.717
KKHKKWQKQKIN	Saccharomyces cerevisiae	0.585
CTSCGYKFRSNN	Saccharomyces cerevisiae	0.715
RLIQPLQVQFLN	Saccharomyces cerevisiae	0.63
PDKRNHLIKALN	Saccharomyces cerevisiae	0.589
RLIQPLPVFFLN	Saccharomyces cerevisiae	0.586
FSMRWTFRNWVN	Saccharomyces cerevisiae	0.589
RLVQPLPVQFLN	Saccharomyces cerevisiae	0.628
RLIQPLPVQFLNP	Saccharomyces cerevisiae	0.664
PDKRNHLIKLLNC	Saccharomyces cerevisiae	0.663
KKHKKGQKQQIN	Saccharomyces cerevisiae	0.554
LKILRQKMVHQN	Saccharomyces cerevisiae	0.657
LVVYLSCGACIN	Saccharomyces cerevisiae	0.3
PSLAASFWRLVG	Saccharomyces cerevisiae	0.688
LKILRQNMNHQN	Saccharomyces cerevisiae	0.667
ARWWVGLWRGAS	Saccharomyces cerevisiae	0.742
LVVYLSCVRCIN	Saccharomyces cerevisiae	0.335
FSMVWTFRYWVN	Saccharomyces cerevisiae	0.314
LVVYLSCVGCIN	Saccharomyces cerevisiae	0.293
RLIQPLAVQFLN	Saccharomyces cerevisiae	0.6
ARWRVGLIRGAS	Saccharomyces cerevisiae	0.665
RLIQPLPVQQLN	Saccharomyces cerevisiae	0.596
ARWRVGIWRGAS	Saccharomyces cerevisiae	0.691
LKILRQKMNHCN	Saccharomyces cerevisiae	0.669
VRGAVGGWRLIG	Saccharomyces cerevisiae	0.674
PDKNNHLIKLLN	Saccharomyces cerevisiae	0.757
RLIQILPVQFLN	Saccharomyces cerevisiae	0.546
CTSCGYKFRTNNQ	Saccharomyces cerevisiae	0.673
PYKRNHLIKLLN	Saccharomyces cerevisiae	0.6
PSLAASFWRVVY	Saccharomyces cerevisiae	0.682
PSLAASLWRVVG	Saccharomyces cerevisiae	0.673
CTSCGYTFRTNN	Saccharomyces cerevisiae	0.708
RLIQPLPVQGLN	Saccharomyces cerevisiae	0.739
VRRAVGGWRLVG	Saccharomyces cerevisiae	0.695
RLIHPLPVQFLN	Saccharomyces cerevisiae	0.616
CTSCGYKFRTWN	Saccharomyces cerevisiae	0.727
CTSCGHKFRTNN	Saccharomyces cerevisiae	0.706
FSQRWTFRYWVN	Saccharomyces cerevisiae	0.563
PSLAASFWRDVG	Saccharomyces cerevisiae	0.695
KKHKKGQKRKIN	Saccharomyces cerevisiae	0.655
EKHKKGQKQKIN	Saccharomyces cerevisiae	0.613
PDKTNHLIKLLN	Saccharomyces cerevisiae	0.658
PSLAASEWRVVG	Saccharomyces cerevisiae	0.703
ARWRVGLWRGMS	Saccharomyces cerevisiae	0.663
PDKRNHLIKLTN	Saccharomyces cerevisiae	0.568
ARWRVGLWLGAS	Saccharomyces cerevisiae	0.618
LVTYLSCVACIN	Saccharomyces cerevisiae	0.167
PDKRNHLIKLSN	Saccharomyces cerevisiae	0.609
LAILRQKMNHQN	Saccharomyces cerevisiae	0.67
ARWRVGLWRGASN	Saccharomyces cerevisiae	0.689
ARWRVGLWRGASL	Saccharomyces cerevisiae	0.715
LKILRQKMNFQN	Saccharomyces cerevisiae	0.674
FSMRMTFRYWVN	Saccharomyces cerevisiae	0.464
KKHKKGQKQKINV	Saccharomyces cerevisiae	0.657
LVVYLSCYACIN	Saccharomyces cerevisiae	0.0478
LKILRQKMNYQN	Saccharomyces cerevisiae	0.657
KKHKKGSKQKIN	Saccharomyces cerevisiae	0.673
PDKRNHLIKQLN	Saccharomyces cerevisiae	0.575
PDKENHLIKLLN	Saccharomyces cerevisiae	0.602
VRGAVGGWRLVGG	Saccharomyces cerevisiae	0.682
CTSCGSKFRTNN	Saccharomyces cerevisiae	0.692
KKHKKGQQQKIN	Saccharomyces cerevisiae	0.571
FSMRWTFGYWVN	Saccharomyces cerevisiae	0.404
LVVRLSCVACIN	Saccharomyces cerevisiae	0.0347
AMWRVGLWRGAS	Saccharomyces cerevisiae	0.65
LHVYLSCVACIN	Saccharomyces cerevisiae	0.109
ARWRVGLWRGDS	Saccharomyces cerevisiae	0.688
PDKRNHLIKLLNF	Saccharomyces cerevisiae	0.67
PSLAASFWQVVG	Saccharomyces cerevisiae	0.692
VRGAVGGWRLEG	Saccharomyces cerevisiae	0.69
ARWRVGVWRGAS	Saccharomyces cerevisiae	0.686
PSLARSFWRVVG	Saccharomyces cerevisiae	0.7
VRGAVGGWRPVG	Saccharomyces cerevisiae	0.671
PSLAASFWHVVG	Saccharomyces cerevisiae	0.691
ARWRVGLWRVAS	Saccharomyces cerevisiae	0.67
VRGAVGVWRLVG	Saccharomyces cerevisiae	0.665

---

Measured protein stability index by item
System: Saccharomyces cerevisiae
Assay: protein stability index of tFT-peptide fusion (C-terminal peptide) (PSI (0-1 scale)); higher = more stable (slower turnover)
Details: genetic background: wild type; temperature: 30 C

sequence entry	protein stability index
RSHPRQSGLRTA	0.652
AHQEAIIPTIGK	0.694
TKIPVLLKNSAN	0.704
VVATRYGGCFRR	0.669
IFYTHRSLSGNL	0.659
PAPAPSPSFRDH	0.708
CHFLLPFLFTCA	0.332
AGAGEHCDGVVG	0.641
RSRGSTKLKNLI	0.817
NKLYDESLALYP	0.704
YCGPSAGREGGG	0.771
VAWTYDYTGVLR	0.626
IMKRNKKIKREI	0.711
PTNPPLSQPPPQ	0.702
QKPKDKKKRTKE	0.679
PVLMTHPYFASS	0.725
HSPPVPFPPPTS	0.358
CSLEREKLQEQQ	0.689
TGYRYVGRFFVV	0.248
PPGSPPSLHLPP	0.734
WGGQRGWVEVWR	0.683
SPAPRPSPVPGL	0.686
PPPPPPLPSPSS	0.35
QTKKKLTQSQRT	0.694
LWGEGAGPEDVG	0.674
VDVWCGRGVGRG	0.707
IAFFFLHIPPAF	0.569
GGGVGLRGGWDG	0.71
TWIEGGVDRQRG	0.683
TRSSHSHLETFV	0.684
RPLYPGSKVQLL	0.691
VALAVRVVVCGA	0.142
CGEEVGGGVMIW	0.689
WDNGQVRLLRYV	0.593
DGGHLVGHDLFY	0.727
TCPDSVMDRLDS	0.696
PSASRILSPPLP	0.649
GGTHCRVCCVLF	0.659
GGGLVLSGWCVW	0.751
EFRCRGPWGLEE	0.761
ESSVLGFWIMSL	0.629
VLSLLPFSPFSP	0.735
RFWFTFYLIAVF	0.103
GPFRRLRCTAFI	0.713
VFSLLRCLFRPP	0.669
EKIKNKDYIEKT	0.887
TEREAKKKKSKI	0.704
LLLFTPFYLLLR	0.305
EKLKNTYLNRTE	0.641
GGVYVASQGTFV	0.673
RKKNEKKEDNKK	0.747
PLAPPPSILPVP	0.703
PPTHHRALRPSA	0.687
NGGERQDGGKHR	0.648
LLPQSPRPLVHS	0.774
VLIAIIRYGPYT	0.538
GATPRTAGRRPG	0.688
PRFLRWLFSLLI	0.515
STPPPRSLPSPP	0.716
PSPPPLPPLPPP	0.764
RKKREKREKETN	0.598
KKKKFQDQKIDE	0.629
EITRNKRRCARR	0.674
GSGRNKGLWRIW	0.725
ALLLPFPPPPPP	0.559
RLRWLSPMTHVG	0.463
PSPTPLPSPRLP	0.676
PPLPSPPQPYSA	0.639
GGGGSFLVGLGL	0.647
GGGGGVSGGGVF	0.672
WIVQCCLYVPVQ	0.377
KQHWIDDRNRIE	0.716
RFPLCLHLPLLL	0.55
VRVEVVVFEGAG	0.598
PPSPPPPRPPSS	0.704
KKKKDKEIIHKE	0.758
PPATQSPPLPPC	0.766
GGRCGEGLVREG	0.702
PLARLRFRSVVG	0.668
FSSLLLMEVFLP	0.686
PPPPLPPPPSPA	0.791
KKKKKGASEDNI	0.786

---

Overview of recorded protein stability index for various sequences
Test system: Saccharomyces cerevisiae
Assay: protein stability index of tFT-peptide fusion (C-terminal peptide) (PSI (0-1 scale)); higher = more stable (slower turnover)
Details: genetic background: das1 deletion; temperature: 37 C
measurement name: protein stability index

sequence entry	measurement name	recorded number
FGCLFILRCSFL	protein stability index	0.538
HFLRYCSWFGLL	protein stability index	0.781
FGGVFCVMARLV	protein stability index	0.689
YSVNSLFCKVFG	protein stability index	0.541
GGWGSSLGVWVG	protein stability index	0.767
WGCIFWFFDVRV	protein stability index	0.416
GGFLLRGLFLFL	protein stability index	0.662
DGGHLVGHDLFY	protein stability index	0.758
VAWCVWCWWWAV	protein stability index	0.351
LLVSVVFVSRFF	protein stability index	0.514
GIANHAMVIVVL	protein stability index	0.508
GKWVWSSFVWFG	protein stability index	0.674
WCAGCLGWWLQS	protein stability index	0.791
VLGARWHWIYIA	protein stability index	0.664
FYPLPASIPDFA	protein stability index	0.742
FFILVFFSLLST	protein stability index	0.441
VVGRWGFVVECW	protein stability index	0.394
LFLFFFLPPLLF	protein stability index	0.484
YILIKEVLYAVC	protein stability index	0.281
CGILACSVCTFF	protein stability index	0.634
CSSIFSSSDCYA	protein stability index	0.722
WRVVVSCALHVC	protein stability index	0.274
LLLCVVLVSVFG	protein stability index	0.174
VFWLLVAVLRYW	protein stability index	0.354
VLISLVLLFRCW	protein stability index	0.386
VIWIRMISFFVW	protein stability index	0.35
LFWCCVGLSVWR	protein stability index	0.503
CHFLLPFLFTCA	protein stability index	0.369
VGYHCIVGVIFL	protein stability index	0.545
WLVVGGVVLLVV	protein stability index	0.395
CVFVRCVDCMSG	protein stability index	0.594
GMNGLFFIAMLG	protein stability index	0.642
WSFAPRLRCSYL	protein stability index	0.883
VLGLYSLLLSFF	protein stability index	0.644
RRLAVWCDFRSL	protein stability index	0.747
FFSQLFLEIVAA	protein stability index	0.196
LLHFVLYFLSCT	protein stability index	0.555
FPRQFVYLPLLF	protein stability index	0.696
LSFLSLIFSICY	protein stability index	0.526
FQPLELFFVCVF	protein stability index	0.235
VCPWGYCSEWGF	protein stability index	0.801
WSCFLLLLSLSL	protein stability index	0.524
LTCTSTPMACRV	protein stability index	0.596
VFSRVLSVLLSA	protein stability index	0.543
LCIRHFRLLELL	protein stability index	0.728
VVGLVSIVQVIM	protein stability index	0.51
SVLLVFRFFWEL	protein stability index	0.506
LSLCPVHRLLVL	protein stability index	0.624
YIRINNIYWKKS	protein stability index	0.722
PLRLRCASLFAN	protein stability index	0.737
WVVVGWVGVGFR	protein stability index	0.575
SSVCYFGLLFIV	protein stability index	0.623
LFTRSIRNLKSL	protein stability index	0.738
FVVHPARYYLVL	protein stability index	0.664
WCAMITVFCGSG	protein stability index	0.41
CVFCRVAVGVDG	protein stability index	0.616
YHGVYLARVLQA	protein stability index	0.69
CGLYNQFCLFLY	protein stability index	0.653
LGLLIFQWARVL	protein stability index	0.553
HDLRRRVVSVMV	protein stability index	0.55
RSITFFPVCLVK	protein stability index	0.491
LLRFFPCFLGVN	protein stability index	0.701
TVRVVMLRLLFT	protein stability index	0.528
RSLSFGMVLCYS	protein stability index	0.438
VFLFSLCIRLSR	protein stability index	0.289
VAIMSIWLVYML	protein stability index	0.497
GLFCCFLCLSVF	protein stability index	0.343
HSPPVPFPPPTS	protein stability index	0.72
RVWIVCYHVSSY	protein stability index	0.371
VVISRVLAIRLL	protein stability index	0.617
WSMSSPPLLLAS	protein stability index	0.377
LVFGFSLILRVG	protein stability index	0.356
VQFISLVCLFRF	protein stability index	0.475
LSIGCRCLWGWF	protein stability index	0.762
KVALWRRGVLAA	protein stability index	0.476
VLVLSFLYRMVK	protein stability index	0.507
HNLIRKHAKESS	protein stability index	0.699
YPFIPLIVCGFF	protein stability index	0.475
ARCKRSLSGGIG	protein stability index	0.545
IGSARIKLLCYH	protein stability index	0.743
CASIVDGFAFRF	protein stability index	0.786
SWRRCLSSIPVA	protein stability index	0.457
